- target desc: T1, platelet glycoprotein VI (GPVI) on washed human platelets (human, UniProt Q9HCN6 21-339)
- T1 sequence: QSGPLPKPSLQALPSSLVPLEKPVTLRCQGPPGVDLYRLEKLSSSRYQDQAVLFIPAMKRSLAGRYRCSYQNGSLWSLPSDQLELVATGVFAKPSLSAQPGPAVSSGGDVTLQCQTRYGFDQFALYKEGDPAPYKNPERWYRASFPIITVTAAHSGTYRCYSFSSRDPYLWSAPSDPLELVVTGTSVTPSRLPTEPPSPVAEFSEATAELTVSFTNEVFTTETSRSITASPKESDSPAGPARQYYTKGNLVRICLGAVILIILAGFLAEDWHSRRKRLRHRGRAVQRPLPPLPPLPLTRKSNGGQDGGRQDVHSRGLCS
- assay comment: cell-based or functional assay
assay readout: Inhibition of the collagen-induced aggregation (%) at 100 µg/ml

binder: RKWVNY [Agg-α6 (Aggretin) hexapeptide RKWVNY]
value measured: 21.7%

binder: RKWFVA [CVX-α6 (Convulxin) hexapeptide RKWFVA]
value measured: 28.7%

binder: CKWMNV [hexapeptide of trowaglerix α subunit (Troα6, CKWMNV)]
value measured: 44.3%

binder: NQWLSR [Agk--β6 hexapeptide NQWLSR]
value measured: 24.6%
